Sourced from patent US20240035973A1

Target: GIRK (Homo sapiens, UniProt P48051+P48549)
Sequence (P48549 whole entry): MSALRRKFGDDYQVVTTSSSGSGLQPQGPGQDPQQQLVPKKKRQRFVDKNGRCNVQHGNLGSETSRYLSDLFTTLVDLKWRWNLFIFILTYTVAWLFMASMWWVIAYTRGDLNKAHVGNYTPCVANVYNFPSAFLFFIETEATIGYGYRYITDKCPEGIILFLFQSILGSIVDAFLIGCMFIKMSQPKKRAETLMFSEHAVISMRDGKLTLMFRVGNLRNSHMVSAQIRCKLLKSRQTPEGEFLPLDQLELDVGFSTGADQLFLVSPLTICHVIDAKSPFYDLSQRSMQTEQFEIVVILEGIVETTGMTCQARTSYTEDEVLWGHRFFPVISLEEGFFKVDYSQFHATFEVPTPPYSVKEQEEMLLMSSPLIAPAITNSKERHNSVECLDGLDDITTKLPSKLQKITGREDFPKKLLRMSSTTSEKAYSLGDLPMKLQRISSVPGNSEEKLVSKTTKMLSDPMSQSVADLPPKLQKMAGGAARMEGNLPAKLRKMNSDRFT
Sequence (P48051 whole entry): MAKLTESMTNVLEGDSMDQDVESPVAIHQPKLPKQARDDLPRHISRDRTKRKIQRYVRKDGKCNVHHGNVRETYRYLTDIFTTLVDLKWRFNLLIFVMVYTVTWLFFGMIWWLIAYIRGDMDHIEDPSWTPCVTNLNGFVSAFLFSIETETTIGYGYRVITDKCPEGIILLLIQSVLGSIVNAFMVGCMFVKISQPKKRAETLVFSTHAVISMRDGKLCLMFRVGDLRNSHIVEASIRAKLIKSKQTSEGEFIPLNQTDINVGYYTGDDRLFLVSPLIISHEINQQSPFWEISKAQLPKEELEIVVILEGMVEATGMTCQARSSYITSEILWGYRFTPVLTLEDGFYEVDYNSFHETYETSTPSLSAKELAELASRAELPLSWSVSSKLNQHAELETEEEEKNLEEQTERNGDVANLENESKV
Experiment: traditional thallium flux assay (influx), dose response
Format: cell-based
Settings: traditional thallium flux method, CHO GIRK cells
Result type: pEC50
Quick note: pEC50 values are minus log10 of concentrations in mol/L.

Reported pEC50 for Cc1cc(NC(=O)Nc2ccc(F)c(F)c2)n(Cc2ccccc2)n1 [VU551] was 7.11
